molecular target: MRGPRX4-83S (Homo sapiens, UniProt Q96LA9, L83S); experiment: Calcium assay (human glioblastoma LN229 cells expressing the MRGPRX4-83S); format: cell-based; design: LN229 glioblastoma cells natively expressing the MRGPRX4-83S; endogenous in cells; host or cells: LN229 human glioblastoma cells; details: Table 3; calcium mobilization, LN229 cells, MRGPRX4-83S; read-out: EC50 ± SEM
Sequence (Q96LA9 whole entry L83S): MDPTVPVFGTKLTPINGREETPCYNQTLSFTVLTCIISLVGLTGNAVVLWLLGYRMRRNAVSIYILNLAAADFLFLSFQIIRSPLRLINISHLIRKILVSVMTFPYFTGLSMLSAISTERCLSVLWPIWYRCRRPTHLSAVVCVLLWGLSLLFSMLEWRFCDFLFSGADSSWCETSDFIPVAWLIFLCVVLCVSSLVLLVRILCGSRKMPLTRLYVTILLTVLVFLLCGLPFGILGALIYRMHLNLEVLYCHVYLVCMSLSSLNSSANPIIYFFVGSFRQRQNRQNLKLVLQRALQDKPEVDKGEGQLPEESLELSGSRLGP
Some compounds, each annotated with its measured EC50.

# Compound, Study target, Modifier sign, EC50 / nM
data = [
    ("C#CCn1c(=O)c2c(nc(Cc3ccc4ccccc4c3)n2CC)n(CCCCP(=O)(O)O)c1=O", "MRGPRX4-83S (Homo sapiens, UniProt Q96LA9, L83S)", ">", 10000),
    ("C#CCn1c(=O)c2c(nc(CCc3c(C)cccc3C)n2CC)n(CCCCP(=O)(O)O)c1=O", "MRGPRX4-83S (Homo sapiens, UniProt Q96LA9, L83S)", "=", 0.543),
    ("C#CCn1c(=O)c2c(nc(CCc3ccccc3C)n2CC)n(CCCCP(=O)(O)O)c1=O", "MRGPRX4-83S (Homo sapiens, UniProt Q96LA9, L83S)", "=", 0.441),
    ("C#CCn1c(=O)c2c(nc(CCc3ccccc3F)n2C)n(CCCCP(=O)(O)O)c1=O", "MRGPRX4-83S (Homo sapiens, UniProt Q96LA9, L83S)", "=", 0.284),
    ("C#CCn1c(=O)c2c(nc(CCc3ccccc3Br)n2C(C)CC)n(CCCCP(=O)(O)O)c1=O (stereo not drawn)", "MRGPRX4-83S (Homo sapiens, UniProt Q96LA9, L83S)", "=", 0.491),
    ("C#CCn1c(=O)c2c(nc(CCc3ccc(C(C)C)cc3)n2CC2CCCC2)n(CCCCP(=O)(O)O)c1=O", "MRGPRX4-83S (Homo sapiens, UniProt Q96LA9, L83S)", ">", 10000),
    ("C#CCn1c(=O)c2c(nc(CCc3ccc(I)cc3)n2CC2CCCC2)n(CCCCP(=O)(O)O)c1=O", "MRGPRX4-83S (Homo sapiens, UniProt Q96LA9, L83S)", "=", 143),
    ("C#CCn1c(=O)c2c(nc(CCc3c(Cl)cccc3Cl)n2CC)n(CCCCP(=O)(O)O)c1=O", "MRGPRX4-83S (Homo sapiens, UniProt Q96LA9, L83S)", "=", 0.363),
    ("C#CCn1c(=O)c2[nH]c(CCc3ccccc3Br)nc2n(CCCCCC(=O)O)c1=O", "MRGPRX4-83S (Homo sapiens, UniProt Q96LA9, L83S)", ">", 10000),
    ("C#CCn1c(=O)c2c(nc(CCc3ccc(C(F)(F)F)cc3)n2CC2CCCC2)n(CCCCP(=O)(O)O)c1=O", "MRGPRX4-83S (Homo sapiens, UniProt Q96LA9, L83S)", "=", 23.7),
    ("C#CCn1c(=O)c2c(nc(CCc3ccc(-c4ccccc4)cc3)n2CC2CCCC2)n(CCCCP(=O)(O)O)c1=O", "MRGPRX4-83S (Homo sapiens, UniProt Q96LA9, L83S)", ">", 10000),
    ("C#CCn1c(=O)c2c(nc(CCc3ccccc3Br)n2C(C)C)n(CCCCP(=O)(O)O)c1=O", "MRGPRX4-83S (Homo sapiens, UniProt Q96LA9, L83S)", "=", 0.79),
]

Source listed as patent US20240002416A1.
